Measured target: T1, DCC
T1 construct: coated protein in the ELISA; also called DCC-His (R&D Systems)
T1 chain: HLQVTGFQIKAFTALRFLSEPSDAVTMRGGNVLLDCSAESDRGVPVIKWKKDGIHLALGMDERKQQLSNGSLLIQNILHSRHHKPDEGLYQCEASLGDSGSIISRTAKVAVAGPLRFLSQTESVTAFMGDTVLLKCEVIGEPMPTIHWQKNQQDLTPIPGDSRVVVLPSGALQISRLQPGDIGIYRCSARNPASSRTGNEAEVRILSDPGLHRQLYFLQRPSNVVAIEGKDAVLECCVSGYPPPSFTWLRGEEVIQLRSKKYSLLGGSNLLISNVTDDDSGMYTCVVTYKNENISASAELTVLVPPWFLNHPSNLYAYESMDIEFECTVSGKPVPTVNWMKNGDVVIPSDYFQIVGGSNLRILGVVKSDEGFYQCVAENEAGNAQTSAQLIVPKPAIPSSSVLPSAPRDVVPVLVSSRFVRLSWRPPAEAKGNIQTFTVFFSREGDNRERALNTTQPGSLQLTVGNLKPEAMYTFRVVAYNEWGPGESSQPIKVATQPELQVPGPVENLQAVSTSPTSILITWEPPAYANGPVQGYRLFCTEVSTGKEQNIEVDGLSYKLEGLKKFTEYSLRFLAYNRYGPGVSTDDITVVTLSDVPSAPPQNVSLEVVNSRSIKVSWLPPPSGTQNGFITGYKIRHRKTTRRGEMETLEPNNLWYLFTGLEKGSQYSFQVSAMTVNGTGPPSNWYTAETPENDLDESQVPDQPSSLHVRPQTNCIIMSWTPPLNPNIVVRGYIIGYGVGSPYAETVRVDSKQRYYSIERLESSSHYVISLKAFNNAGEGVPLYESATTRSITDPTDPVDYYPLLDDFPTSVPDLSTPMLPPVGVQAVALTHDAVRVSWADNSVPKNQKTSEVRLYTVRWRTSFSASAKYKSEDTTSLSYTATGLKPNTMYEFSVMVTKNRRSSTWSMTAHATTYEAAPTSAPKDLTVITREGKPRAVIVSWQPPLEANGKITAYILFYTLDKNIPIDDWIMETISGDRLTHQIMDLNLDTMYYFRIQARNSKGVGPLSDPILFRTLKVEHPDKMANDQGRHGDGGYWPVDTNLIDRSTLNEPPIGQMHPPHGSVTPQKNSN
Protocol: ELISA on coated DCC-His, 150 ng IgG1; None 0.095
Measured ELISA Absorbance (405 nm-570 nm) values are reported for all entries that follow.
Reported endpoint: ELISA Absorbance (405 nm-570 nm)

HW-42 chimeric rabbit-human IgG1 LA/LA/PG (antibody, V domains shown, Fc-silenced (L234A/L235A/P329G) IgG1, lambda; Alexa Fluor 647-labeled in single-step flow cytometry; Cluster C-1) VH: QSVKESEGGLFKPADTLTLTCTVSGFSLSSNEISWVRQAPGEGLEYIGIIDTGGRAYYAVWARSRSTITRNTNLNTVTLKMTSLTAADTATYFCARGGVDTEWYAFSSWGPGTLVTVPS VL: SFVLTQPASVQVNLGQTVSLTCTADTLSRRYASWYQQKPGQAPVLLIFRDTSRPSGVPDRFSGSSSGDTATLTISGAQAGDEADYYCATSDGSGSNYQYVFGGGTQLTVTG
0.098
HW-25 chimeric rabbit-human IgG1 LA/LA/PG (antibody, V domains shown, Fc-silenced (L234A/L235A/P329G) IgG1, lambda; Alexa Fluor 647-labeled in single-step flow cytometry; Cluster C-1) VH: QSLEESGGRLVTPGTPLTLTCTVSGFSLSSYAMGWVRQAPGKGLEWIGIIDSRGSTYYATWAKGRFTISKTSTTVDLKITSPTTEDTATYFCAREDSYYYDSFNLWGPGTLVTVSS VL: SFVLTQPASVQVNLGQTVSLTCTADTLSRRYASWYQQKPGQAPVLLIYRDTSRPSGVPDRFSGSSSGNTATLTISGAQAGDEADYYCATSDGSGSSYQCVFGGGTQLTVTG
0.063
HW-28 chimeric rabbit-human IgG1 LA/LA/PG (antibody, V domains shown, Fc-silenced (L234A/L235A/P329G) IgG1, lambda; Alexa Fluor 647-labeled in single-step flow cytometry; Cluster C-45) VH: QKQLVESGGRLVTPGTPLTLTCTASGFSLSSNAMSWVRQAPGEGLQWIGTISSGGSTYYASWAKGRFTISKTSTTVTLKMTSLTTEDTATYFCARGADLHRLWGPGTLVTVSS VL: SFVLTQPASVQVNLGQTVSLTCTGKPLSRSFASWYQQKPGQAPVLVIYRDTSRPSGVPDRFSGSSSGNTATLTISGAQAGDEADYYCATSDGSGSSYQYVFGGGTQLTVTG
0.128

Sourced from patent US20260049134A1
